# Experiment: logP by LC-MS on reversed-phase columns (C 18), method [b], acidic range pH 2.7
# Assay type: physicochemical
# Measurement Parameters: pH 2.7, log p
A collection of molecules and their measured chromatographic logP

| Molecule | chromatographic logP |
| --- | --- |
| COCc1cccc(Nc2ncc(Cl)c(N(C)C3CC3C)n2)c1 (centres unmarked) [Example 199] | 3.23 |
| COCCOc1ccc(Nc2ncc(C(F)(F)F)c(NC3CC3)n2)cc1C [Example 157] | 2.14 |
| CCSC(CC)c1cccc(Nc2ncc(Cl)c(NC3CC3)n2)c1 (centres unmarked) [Example 115] | 3.33 |
| CCCCCNc1nc(Nc2cccc(COC)c2)ncc1Cl [Example 147] | 2.41 |
| CC[S+]([O-])c1cccc(Nc2ncc(C(F)(F)F)c(NC3CCC3)n2)c1 (centres unmarked) [Example 119] | 2.61 |
| COCCc1cccc(Nc2ncc(Cl)c(NC3CC3)n2)c1 [Example 60] | 2.41 |
| CCCS(=O)(=O)c1cccc(Nc2ncc(Cl)c(NC3CCC3)n2)c1 [Example 103] | 2.6 |
| COCC(O)c1cccc(Nc2ncc(C(F)(F)F)c(NC3CC3)n2)c1 (centres unmarked) [Example 195] | 1.97 |
| CCC(C)CNc1nc(Nc2cccc(COC)c2)ncc1Cl (centres unmarked) [Example 145] | 2.37 |
| CCS(=O)(=O)C(C)c1cccc(Nc2ncc(Cl)c(NC3CC3)n2)c1 (centres unmarked) [Example 75] | 2.54 |
| CCOCCOc1ccc(Nc2ncc(C(F)(F)F)c(NC3CC3)n2)cc1C(F)(F)F [Example 186] | 4.09 |
| COCCOc1cccc(Nc2ncc(C(F)(F)F)c(NC3CCC3)n2)c1 [Example 71] | 3.33 |
| CCC(C)SC(C)c1cccc(Nc2ncc(Cl)c(NC3CC3)n2)c1 (centres unmarked) [Example 133] | 3.79 |
| CCC(C)S(=O)(=O)C(C)c1cccc(Nc2ncc(Cl)c(NC3CC3)n2)c1 (centres unmarked) [Example 163] | 2.16 |
| COCc1cccc(Nc2ncc(Cl)c(NCC(C)(C)C)n2)c1 [Example 142] | 2.48 |
| COCCCSc1cccc(Nc2ncc(Cl)c(NC3CC3)n2)c1 [Example 201] | 2.59 |
| CCC(C)SC(C)c1cccc(Nc2ncc(C(F)(F)F)c(NC3CC3)n2)c1 (centres unmarked) [Example 132] | 5.09 |
| COCc1cccc(Nc2ncc(Cl)c(NC3CCC3C)n2)c1 (centres unmarked) [Example 207] | 2.44 |
| CCOCCOc1cccc(Nc2ncc(Cl)c(NC3CC3)n2)c1 [Example 93] | 2.13 |
| CCC[S+]([O-])c1cccc(Nc2ncc(Br)c(NC3CC3)n2)c1 (centres unmarked) [Example 102] | 1.04 |
| COC(C)c1cc(Nc2ncc(Cl)c(NC3CC3)n2)ccc1C (centres unmarked) [Example 92] | 2.11 |
| COCCOc1ccc(Nc2ncc(C(F)(F)F)c(NC3CC3)n2)cc1 [Example 82] | 2.3 |
| CCOCCOCc1cccc(Nc2ncc(Cl)c(NC3CC3)n2)c1 [Example 248] | 2.03 |
| CC[S+]([O-])c1cccc(Nc2ncc(C(F)(F)F)c(NC3CC(C)C3)n2)c1 (centres unmarked) [Example 242] | 2.98 |
| CCSCc1cccc(Nc2ncc(Cl)c(NC3CCC3)n2)c1 [Example 219] | 3 |
| COC(C)c1cccc(Nc2ncc(C(F)(F)F)c(NC3CCCC3)n2)c1 (centres unmarked) [Example 17] | 4.13 |
| CCCSc1cccc(Nc2ncc(Br)c(NC3CCC3)n2)c1 [Example 57] | 3.96 |
| CCC[S+]([O-])c1cccc(Nc2ncc(Cl)c(NC3CCC3)n2)c1 (centres unmarked) [Example 100] | 2.09 |
| CC[S+]([O-])c1cccc(Nc2ncc(C(F)(F)F)c(NC3CC3)n2)c1 (centres unmarked) [Example 117] | 2.2 |
| COCc1cccc(Nc2ncc(Cl)c(NCC(F)F)n2)c1 [Example 22] | 1.99 |
| COC(C)c1cccc(Nc2ncc(C(F)(F)F)c(NC3CC3C)n2)c1 (centres unmarked) [Example 229] | 3.61 |
| CCCCS(=O)(=O)c1cccc(Nc2ncc(Cl)c(NC3CCC3)n2)c1 [Example 170] | 3.09 |
| COCCCOC(C)c1cccc(Nc2ncc(C(F)(F)F)c(NC3CC3)n2)c1 (centres unmarked) [Example 254] | 3.49 |
| CC[S+]([O-])C(C)c1cccc(Nc2ncc(Cl)c(NC3CCC3)n2)c1 (centres unmarked) [Example 76] | 1.68 |
| CCCC[S+]([O-])c1cccc(Nc2ncc(Cl)c(NC3CC3)n2)c1 (centres unmarked) [Example 124] | 2.13 |
| CCC1CC1Nc1nc(Nc2cccc(COC)c2)ncc1Cl (centres unmarked) [Example 108] | 2.46 |
| COC(C)c1cccc(Nc2ncc(Cl)c(NC(C)C)n2)c1 (centres unmarked) [Example 129] | 2.02 |
| CCSCc1cccc(Nc2ncc(Br)c(NC3CC3)n2)c1 [Example 218] | 2.79 |

The measurements presented in this section are drawn from patent US20110245284A1.
